Compiled from multiple publications: IC50 readings for Prostaglandin G/H synthase 1 (Mus musculus, UniProt P22437).

Worked set:
compound=c1cn(-c2ccc(-c3[nH]c(-c4ccc(-n5ccnc5)cc4)c4c3CCCC4)cc2)cn1 result="1 µM"
compound=O=C(NS(=O)(=O)c1ccccc1)c1cncc(C(=O)NS(=O)(=O)c2ccccc2)c1 result="36.9 µM"
compound=c1ccc(-c2[nH]c(-c3ccccc3)c3c2C2CCC3CC2)cc1 result="0.25 µM"
compound=O=C(NS(=O)(=O)c1ccc(F)cc1)c1ccncc1 result="> 50 µM"

Param item = Clc1ccc(-c2[nH]c(-c3ccc(Cl)cc3)c3c2CCCC3)cc1 ; retrieve measured IC50.
> 5 µM

Param item = O=C(NS(=O)(=O)c1ccc(F)cc1)c1ccccn1 ; retrieve measured IC50.
43.8 µM

Param item = CCOC(=O)Cc1cc(-c2ccc(S(C)(=O)=O)cc2)n(-c2ccc(C(F)(F)F)cc2)c1C ; retrieve measured IC50.
> 100 µM

Param item = CC1(C)OC(c2ccc(S(C)(=O)=O)cc2)=C(c2ccc(Br)cc2)C1=O ; retrieve measured IC50.
0.0712 µM

Param item = Cn1cc(C2=C(c3ccc(S(C)(=O)=O)cc3)OC(C)(C)C2=O)cn1 ; retrieve measured IC50.
86.6 µM

Param item = COc1ccc(-c2[nH]c(-c3ccc(OC)cc3)c3c2CCCC3)cc1 ; retrieve measured IC50.
1 µM

###

Compiled from multiple publications: pIC50 readings for Prostaglandin G/H synthase 1 (Mus musculus, UniProt P22437).
Kindly note that pIC50 refers to -log10 of the concentration in mol/L and answer with the value alone.

Worked set:
compound="CCC1(C)OC(c2ccc(S(C)(=O)=O)cc2)=C(c2cc(Cl)cc(Cl)c2)C1=O (stereo not given)" number=4.33
compound=CC1(C)OC(c2ccc(S(C)(=O)=O)cc2)=C(c2ccccc2)C1=O number=5.06
compound=CCC1(CC)OC(c2ccc(S(C)(=O)=O)cc2)=C(c2ccccc2)C1=O number=4.09
compound=Fc1ccc(-c2[nH]c(-c3ccc(F)cc3)c3c2C2C=CC3C2)cc1 number=6.30
compound=CC1(C)OC(c2ccc(S(N)(=O)=O)cc2)=C(c2cccc(F)c2)C1=O number=6.08

Moving on to another compound below.
Param item = Cc1ccccc1C1=C(c2ccc(S(C)(=O)=O)cc2)OC(C)(C)C1=O ; retrieve measured pIC50.
4.25

###

Compiled from multiple publications: IC50 readings for Prostaglandin G/H synthase 1 (Mus musculus).
Please reply with the bare figure in µM and do not write the unit itself.

smiles_representation=O=C(NS(=O)(=O)c1ccc(Br)cc1)c1cccc(C(=O)NS(=O)(=O)c2ccc(Br)cc2)n1 display_unit=µM number=35.6
smiles_representation=CC1(C)OC(c2ccc(S(C)(=O)=O)cc2)=C(c2cccnc2)C1=O display_unit=µM number=29.1
smiles_representation=Fc1ccc(-c2[nH]c(-c3ccc(F)cc3)c3c2CCCC3)cc1 display_unit=µM number=0.1
smiles_representation=CC(=O)c1ccc(C2=C(c3ccc(S(N)(=O)=O)cc3)OC(C)(C)C2=O)cc1 display_unit=µM number=0.675
smiles_representation=Cc1cccc(C2=C(c3ccc(S(C)(=O)=O)cc3)OC3(CCCCC3)C2=O)c1 display_unit=µM number=7.57

Param item = CS(=O)(=O)c1ccc(C2=C(c3cccc(F)c3)C(=O)C3(CCCC3)O2)cc1 ; retrieve measured IC50.
7.76
